Listing of recorded M2/M1 by entry.
molecular target: M1 muscarinic receptor (Rattus norvegicus, UniProt P08482); construct: from tissue; host or cells: rat brain tissue; assay: [3H]-Pirenzepine M1 receptor binding, rat brain tissue; settings: ratio of M2 IC50 to M1 IC50
Sequence (P08482 whole entry): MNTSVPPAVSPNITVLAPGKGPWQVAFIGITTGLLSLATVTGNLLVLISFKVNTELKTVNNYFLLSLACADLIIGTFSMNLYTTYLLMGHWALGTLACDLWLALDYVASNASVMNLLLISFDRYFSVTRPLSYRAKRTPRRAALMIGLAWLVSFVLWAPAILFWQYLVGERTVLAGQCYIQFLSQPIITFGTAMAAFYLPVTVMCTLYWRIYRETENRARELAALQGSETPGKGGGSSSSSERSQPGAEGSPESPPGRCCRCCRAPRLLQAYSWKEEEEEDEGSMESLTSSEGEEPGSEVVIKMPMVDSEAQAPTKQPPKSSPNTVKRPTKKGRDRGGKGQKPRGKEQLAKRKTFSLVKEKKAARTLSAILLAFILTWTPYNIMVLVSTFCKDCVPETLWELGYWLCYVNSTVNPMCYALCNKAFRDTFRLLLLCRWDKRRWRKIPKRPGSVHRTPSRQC

| Compound | M2/M1 |
| --- | --- |
| Cc1nnc(NCCCN(C)C)c2cc3ccccn3c12 [Example 3] | 24 |
| Cc1nnc(NCCCN2CCOCC2)c2cc3ccccn3c12 [Example 5] | 44 |
| Cc1nnc(NCCCN2CCCCC2)c2cc3ccccn3c12 [Example 8] | 13 |
| Cc1nnc(N2CCN(C)CC2)c2cc3ccccn3c12 [Example 7] | 29 |
| Cc1nnc(NCCN(C)C)c2cc3ccccn3c12 [Example 2] | 18 |

Origin of the recorded values: patent US4985560A
